Biological target: Nociceptin receptor (Homo sapiens)
Sequence (P41146 whole entry): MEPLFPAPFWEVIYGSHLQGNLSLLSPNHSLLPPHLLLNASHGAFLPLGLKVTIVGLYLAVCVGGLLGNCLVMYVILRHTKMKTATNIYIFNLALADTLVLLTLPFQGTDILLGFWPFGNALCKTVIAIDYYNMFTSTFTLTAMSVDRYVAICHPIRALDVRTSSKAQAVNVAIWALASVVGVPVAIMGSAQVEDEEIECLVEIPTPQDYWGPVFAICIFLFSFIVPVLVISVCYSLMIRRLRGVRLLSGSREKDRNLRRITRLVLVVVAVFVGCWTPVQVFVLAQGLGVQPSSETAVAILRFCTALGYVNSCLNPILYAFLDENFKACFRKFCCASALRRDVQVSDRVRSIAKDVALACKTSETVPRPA
Assay: Displacement of [125I]Tyr-nociceptin from cloned human ORL1 expressed in CHO cells
Format: cell-based
# key: entry, value: IC50

{"compound": "C[C@@H](O)[C@H](NC(=O)c1ccccc1)C(=O)NCCCN1CCC2(CCc3ccccc32)CC1", "IC50": "> 1000 nM"}

Ask: Reported IC50, compound O=C(N[C@H]1CCCC[C@H]1C(=O)NCCCN1CCC2(CCc3ccccc32)CC1)c1ccccc1 : ____
Reply: > 1000 nM

Ask: Here is the next compound: O=C(NCCCN1CCC2(CCc3ccccc32)CC1)C1Cc2ccccc21 (stereo unspecified)
Reply: > 1000 nM

Ask: Here is the next compound: O=C(NCCCN1CCC2(CCc3ccccc32)CC1)C1CC1c1ccccc1 (stereo unspecified)
Reply: > 1000 nM

Ask: Here is the next compound: O=C(NCCCN1CCC2(CCc3ccccc32)CC1)c1ncccc1-c1ccccc1
Reply: > 1000 nM

Ask: Here is the next compound: O=C(NCCCN1CCC2(CCc3ccccc32)CC1)C1(c2ccccc2)CCCC1
Reply: > 1000 nM

Ask: Here is the next compound: O=C1N[C@@H](Cc2ccccc2)[C@@H](C(=O)NCCCN2CCC3(CCc4ccccc43)CC2)O1
Reply: 30 nM

Ask: Here is the next compound: O=C(Cc1cccc2ccccc12)NCCCN1CCC2(CCc3ccccc32)CC1
Reply: > 1000 nM

Ask: Here is the next compound: CC(Oc1ccc(Cl)cc1Cl)C(=O)NCCCN1CCC2(CCc3ccccc32)CC1 (stereo unspecified)
Reply: > 1000 nM

Ask: Here is the next compound: O=C(NCCCN1CCC2(CCc3ccccc32)CC1)C1(c2ccccc2)CCCCC1
Reply: 630 nM

Ask: Here is the next compound: O=C(NCCCN1CCC2(CCc3ccccc32)CC1)C(=O)c1c[nH]c2ccccc12
Reply: 330 nM

Ask: Here is the next compound: O=C(NCCCN1CCC2(CCc3ccccc32)CC1)C1CCCCC1C(=O)Nc1ccccc1 (stereo unspecified)
Reply: > 1000 nM

Ask: Here is the next compound: O=C(NCCCN1CCC2(CCc3ccccc32)CC1)c1cccc(Oc2ccccc2)c1
Reply: > 1000 nM

Ask: Here is the next compound: O=C(NCCCN1CCC2(CCc3ccccc32)CC1)[C@H]1CCC(=O)N1Cc1ccccc1
Reply: 50 nM

Ask: Here is the next compound: O=C(NCCCN1CCC2(CCc3ccccc32)CC1)[C@H](O)Cc1ccccc1
Reply: > 1000 nM

Ask: Here is the next compound: O=C(/C=C/c1ccccc1)NCCCN1CCC2(CCc3ccccc32)CC1
Reply: 540 nM

Ask: Here is the next compound: O=C(NCCCN1CCC2(CCc3ccccc32)CC1)c1cccc2c1Cc1ccccc1-2
Reply: > 1000 nM
